IC50 tested on PARP1 (Homo sapiens (Human), UniProt P09874): recorded values
Sequence (P09874 whole entry): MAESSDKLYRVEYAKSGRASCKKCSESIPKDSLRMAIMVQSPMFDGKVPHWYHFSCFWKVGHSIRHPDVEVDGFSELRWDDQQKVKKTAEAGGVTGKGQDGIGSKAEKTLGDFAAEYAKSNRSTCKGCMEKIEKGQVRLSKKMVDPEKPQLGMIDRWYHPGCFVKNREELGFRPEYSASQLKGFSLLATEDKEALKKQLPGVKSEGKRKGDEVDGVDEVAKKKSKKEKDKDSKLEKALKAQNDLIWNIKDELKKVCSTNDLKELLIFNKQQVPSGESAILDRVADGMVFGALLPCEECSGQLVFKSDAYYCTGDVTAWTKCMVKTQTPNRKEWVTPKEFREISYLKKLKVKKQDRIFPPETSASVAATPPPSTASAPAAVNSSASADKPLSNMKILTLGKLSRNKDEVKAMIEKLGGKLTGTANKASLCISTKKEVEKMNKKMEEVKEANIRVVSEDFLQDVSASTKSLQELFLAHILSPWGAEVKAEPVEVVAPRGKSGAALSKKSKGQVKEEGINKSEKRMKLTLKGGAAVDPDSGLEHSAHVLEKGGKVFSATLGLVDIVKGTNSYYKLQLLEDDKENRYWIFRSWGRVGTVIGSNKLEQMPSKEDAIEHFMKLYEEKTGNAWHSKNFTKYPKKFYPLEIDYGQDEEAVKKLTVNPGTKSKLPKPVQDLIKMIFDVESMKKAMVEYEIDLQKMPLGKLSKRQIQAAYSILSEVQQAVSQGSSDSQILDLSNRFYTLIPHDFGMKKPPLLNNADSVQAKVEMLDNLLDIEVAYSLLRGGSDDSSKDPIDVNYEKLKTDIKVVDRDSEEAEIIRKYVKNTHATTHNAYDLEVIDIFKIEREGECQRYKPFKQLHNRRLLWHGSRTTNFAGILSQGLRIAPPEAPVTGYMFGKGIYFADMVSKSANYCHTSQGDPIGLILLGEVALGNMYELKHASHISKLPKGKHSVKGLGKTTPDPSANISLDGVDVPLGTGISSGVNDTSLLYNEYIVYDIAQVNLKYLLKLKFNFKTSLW
# number only, unit nM dropped from output

molecule: CCc1cc2nnc(CN3CCN(c4ccc(C(=O)NC)nc4)[C@@H]4C[C@@H]43)cc2[nH]c1=O [Example 5-1]
output-unit: nM
IC50: 0.9
//
molecule: CNC(=O)c1ccc(N2CCN(Cc3cnc4c5c(c(=O)[nH]c4c3)CCC5)[C@H]3CC[C@H]32)cn1 [Example 12-2]
output-unit: nM
IC50: 0.5
//
molecule: CCc1nc2ncc(CN3CCN(c4ccc(C(=O)NC)nc4)[C@@H]4CC[C@@H]43)cc2[nH]c1=O [Example 11-2]
output-unit: nM
IC50: 1.5

The molecule listed as CNC(=O)c1ccc(N2CCN(Cc3cnc4c5c(c(=O)[nH]c4c3)OCCC5)[C@@H]3CC[C@@H]32)cn1 [Example 31-1] shows IC50 equal to 0.3

The molecule listed as CNC(=O)c1ccc(N2CCN(Cc3cnc4c5c(c(=O)[nH]c4c3)CCC5)[C@@H]3CC[C@@H]32)cn1 [Example 12-1] shows IC50 equal to 0.3

The molecule listed as CNC(=O)c1ccc(N2CCN(Cc3cnc4cc(C(F)(F)F)c(=O)[nH]c4c3)[C@H]3CC[C@H]32)cn1 [Example 30-2] shows IC50 equal to 1.2

The molecule listed as CCc1cc2nnc(CN3CCN(c4ccc(C(=O)NC)nc4)C4CC[C@@H]43)cc2[nH]c1=O (stereo partly shown) [Example 10-2] shows IC50 equal to 0.9

###

# target-or-test-system: PARP1 (Homo sapiens (Human))
# test-protocol: PARP1 enzymatic activity assay
# Format: biochemical
# assay-context: ratio IC50 (PARP2)/IC50 (PARP1)
Please mark fulfilled if the recorded PARP1/PARP2 inhibition Selectivity multiple N (N = IC50 (PARP2)/IC50 (PARP1)) is equal to or greater than 50, and not fulfilled if it falls below.

compound: CNC(=O)c1ccc(N2CCN(Cc3cnc4c5c(c(=O)[nH]c4c3)OCCC5)[C@@H]3CC[C@@H]32)cn1 [Example 31-1]
cat: fulfilled

Read the next record carefully.
Query: Threshold query (PARP1/PARP2 inhibition Selectivity multiple N (N = IC50 (PARP2)/IC50 (PARP1)) >= 50) on CNC(=O)c1ccc(N2CCN(Cc3cnc4cc(OC)c(=O)[nH]c4c3)[C@@H]3CCC32)cn1 (stereo partly shown) [Example 33-2]
Response: fulfilled

###

# test-protocol: Pharmacokinetic study in ICR (CD-1) mice
# Format: in vivo
# assay-context: male ICR (CD-1) mice; tail vein 1 mg/kg, oral 3 mg/kg groups; plasma
# Method: ICR (CD-1) male mice, 3 mice per group. One group of mice was injected with the compound to be tested via the tail vein at a dose of 1 mg/kg. The other group of mice was administered the compound to be tested via single-dose oral administration at a dose of 3 mg/kg. […] The supernatant was diluted 5-fold with MeOH/water (1:1, v/v, 0.1% FA), and loaded to LC-MS/MS for quantification of plasma concentration by analytical methods and calculation of pharmacokinetic parameters.
Each entry below carries its reported Clearance.
# number only, unit mL/h/kg dropped from output

The compound listed as CNC(=O)c1ccc(N2CCN(Cc3cnc4c5c(c(=O)[nH]c4c3)CCC5)[C@H]3CC[C@H]32)cn1 shows Clearance equal to 1.92

The compound listed as CNC(=O)c1ccc(N2CCN(Cc3cnc4cc(C(F)(F)F)c(=O)[nH]c4c3)[C@H]3CC[C@H]32)cn1 shows Clearance equal to 1.62

The compound listed as CCc1cc2ncc(CN3CCN(c4ccc(C(=O)NC)nc4)[C@@H]4CC[C@@H]43)cc2[nH]c1=O shows Clearance equal to 1.74

The compound listed as CCc1cc2ncc(CN3CCN(c4ccc(C(=O)NC)nc4)CC3)cc2[nH]c1=O [AZD5305, reference compound] shows Clearance equal to 10.3

###

Each entry below carries its reported half-life.
# test-protocol: Pharmacokinetic study in ICR (CD-1) mice
# Assay type: in vivo
# assay-context: mouse; male ICR (CD-1) mice; tail vein 1 mg/kg, oral 3 mg/kg groups; plasma; read-out: Half-life t1/2 (converted)
# number only, unit h dropped from output

Recorded results for 2 compounds are shown here.
compound: CCc1cc2ncc(CN3CCN(c4ccc(C(=O)NC)nc4)CC3)cc2[nH]c1=O [AZD5305, reference compound]
half-life, h: 8.04
//
compound: CNC(=O)c1ccc(N2CCN(Cc3cnc4c5c(c(=O)[nH]c4c3)CCC5)[C@H]3CC[C@H]32)cn1 [Example 12-2]
half-life, h: 41.3

Consider the additional compound presented here.
The compound listed as CNC(=O)c1ccc(N2CCN(Cc3cnc4cc(C(F)(F)F)c(=O)[nH]c4c3)[C@H]3CC[C@H]32)cn1 [Example 30-2] shows half-life equal to 47.6

###

# target-or-test-system: PARP2 (Homo sapiens (Human), UniProt Q9UGN5)
# Sequence (Q9UGN5 whole entry): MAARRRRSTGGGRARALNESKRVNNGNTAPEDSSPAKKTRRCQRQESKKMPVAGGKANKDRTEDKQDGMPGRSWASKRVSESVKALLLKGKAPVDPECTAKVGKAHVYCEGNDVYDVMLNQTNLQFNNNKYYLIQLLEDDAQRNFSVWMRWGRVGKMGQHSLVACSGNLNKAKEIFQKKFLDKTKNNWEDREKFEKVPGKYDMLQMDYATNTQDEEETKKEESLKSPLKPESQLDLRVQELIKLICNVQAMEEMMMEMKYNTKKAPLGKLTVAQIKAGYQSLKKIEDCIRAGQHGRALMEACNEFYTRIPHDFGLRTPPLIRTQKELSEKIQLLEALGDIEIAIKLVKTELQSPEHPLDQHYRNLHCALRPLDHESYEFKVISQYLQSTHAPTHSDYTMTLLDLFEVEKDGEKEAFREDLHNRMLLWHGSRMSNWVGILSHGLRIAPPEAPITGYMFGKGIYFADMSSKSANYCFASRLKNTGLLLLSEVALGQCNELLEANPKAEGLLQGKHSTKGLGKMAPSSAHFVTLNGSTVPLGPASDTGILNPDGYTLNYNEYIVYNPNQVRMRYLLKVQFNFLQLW
# test-protocol: PARP2 enzymatic activity assay
# Format: biochemical
# assay-context: final PARP2 1.5 nM, Biotin-NAD+ 2 μM, 60 minutes
measurement-label: pIC50
Note on units: pIC50 is unitless, being -log10 of a concentration expressed in mol/L.

Recorded results for 4 molecules are shown here.
smiles-repr: CNC(=O)c1ccc(N2CCN(Cc3cnc4c5c(c(=O)[nH]c4c3)CCC5)[C@@H]3CC[C@@H]32)cn1
pIC50: 7.74

smiles-repr: CNC(=O)c1ccc(N2CCN(Cc3cnc4cc(C(F)(F)F)c(=O)[nH]c4c3)[C@H]3CC[C@H]32)cn1
pIC50: 7.33

smiles-repr: CNC(=O)c1ccc(N2CCN(Cc3cnc4c5c(c(=O)[nH]c4c3)CCC5)[C@H]3CC[C@H]32)cn1
pIC50: 7.22

smiles-repr: CNC(=O)c1ccc(N2CCN(Cc3cnc4c5c(c(=O)[nH]c4c3)OCCC5)[C@@H]3CC[C@@H]32)cn1
pIC50: 7.04

Consider the additional molecule presented here.
The molecule listed as CCc1nc2ncc(CN3CCN(c4ccc(C(=O)NC)nc4)[C@@H]4CC[C@@H]43)cc2[nH]c1=O shows pIC50 equal to 6.69

###

# target-or-test-system: PARP2 (Homo sapiens (Human))
# test-protocol: PARP2 enzymatic activity assay
# Assay type: biochemical
# assay-context: final PARP2 […], Biotin-NAD+ 2 μM, 60 minutes
Each entry below carries its reported pIC50.
Note on units: pIC50 is unitless, being -log10 of a concentration expressed in mol/L.

The molecule listed as CCc1cc2nnc(CN3CCN(c4ccc(C(=O)NC)nc4)[C@@H]4CC[C@@H]43)cc2[nH]c1=O [Example 10-1] shows pIC50 equal to 7.44

The molecule listed as CCc1cc2ncc(CN3CCN(c4ccc(-c5nnc(C)[nH]5)nc4)[C@@H]4CC[C@@H]43)cc2[nH]c1=O [Example 29-2] shows pIC50 equal to 7.52

The molecule listed as CCc1cc2nnc(CN3CCN(c4ccc(C(=O)NC)nc4)[C@@H]4C[C@@H]43)cc2[nH]c1=O [Example 5-1] shows pIC50 equal to 7.12

The molecule listed as CCc1cc2nnc(CN3CCN(c4ccc(C(=O)NC)nc4)C4C[C@H]43)cc2[nH]c1=O (stereo partly drawn) [Example 5] shows pIC50 equal to 7.51

The molecule listed as CCc1cc2nnc(CN3CCN(c4ccc(C(=O)NC)nc4)C4C[C@H]43)cc2[nH]c1=O (stereo partly drawn) [Example 5-2] shows pIC50 equal to 7.49

###

# target-or-test-system: PARP1 (Homo sapiens (Human))
# test-protocol: PARP1 enzymatic activity assay
# Format: biochemical
# assay-context: ratio IC50 (PARP2)/IC50 (PARP1)
Each entry below carries its reported PARP1/PARP2 inhibition Selectivity multiple N (N = IC50 (PARP2)/IC50 (PARP1)).

compound: CCc1cc2nnc(CN3CCN(c4ccc(C(=O)NC)nc4)[C@@H]4C[C@@H]43)cc2[nH]c1=O
target-or-test-system: PARP1 (Homo sapiens (Human))
value-reported: 83
//
compound: CCc1cc2ncc(CN3CCN(c4ccc(C(=O)NC)nc4)[C@@H]4CC[C@@H]43)cc2[nH]c1=O
target-or-test-system: PARP1 (Homo sapiens (Human))
value-reported: 71
//
compound: CCc1cc2nnc(CN3CCN(c4ccc(C(=O)NC)nc4)C4C[C@H]43)cc2[nH]c1=O (stereo partly shown) [Example 5-2]
target-or-test-system: PARP1 (Homo sapiens (Human))
value-reported: 64

Consider the additional compound presented here.
The compound listed as CNC(=O)c1ccc(N2CCN(Cc3cnc4c5c(c(=O)[nH]c4c3)CCC5)[C@@H]3CC[C@@H]32)cn1 shows PARP1/PARP2 inhibition Selectivity multiple N (N = IC50 (PARP2)/IC50 (PARP1)) equal to 60

###

# target-or-test-system: PARP1 (Homo sapiens (Human))
# test-protocol: PARP1 enzymatic activity assay
# Format: biochemical
# assay-context: ratio IC50 (PARP2)/IC50 (PARP1)
measurement-label: PARP1/PARP2 inhibition Selectivity multiple N (N = IC50 (PARP2)/IC50 (PARP1))
Hey, just send me the number, nothing else.

Recorded results for 3 compounds are shown here.
compound: CCc1cc2ncc(CN3CCN(c4ccc(-c5nnc(C)[nH]5)nc4)[C@@H]4CC[C@@H]43)cc2[nH]c1=O [Example 29-2]
target-or-test-system: PARP1 (Homo sapiens (Human))
value-reported: 43
//
compound: CCc1cc2nnc(CN3CCN(c4ccc(C(=O)NC)nc4)C4CC[C@H]43)cc2[nH]c1=O (some centres unmarked) [Example 10]
target-or-test-system: PARP1 (Homo sapiens (Human))
value-reported: 105
//
compound: CCc1cc2ncc(CN3CCN(c4ccc(C(=O)NC)nc4)C4CCC43)cc2[nH]c1=O (centres unmarked) [Example 2]
target-or-test-system: PARP1 (Homo sapiens (Human))
value-reported: 16

The compound listed as CCc1cc2nnc(CN3CCN(c4ccc(C(=O)NC)nc4)C4CC[C@@H]43)cc2[nH]c1=O (some centres unmarked) [Example 10-2] shows PARP1/PARP2 inhibition Selectivity multiple N (N = IC50 (PARP2)/IC50 (PARP1)) equal to 85

The compound listed as CCc1nc2ncc(CN3CCN(c4ccc(C(=O)NC)nc4)[C@H]4CC[C@H]43)cc2[nH]c1=O [Example 11-1] shows PARP1/PARP2 inhibition Selectivity multiple N (N = IC50 (PARP2)/IC50 (PARP1)) equal to 69

The compound listed as CCc1cc2ncc(CN3CCN(c4ccc(C(=O)NC)nc4)[C@H]4CC[C@@H]43)cc2[nH]c1=O [Example 2-4] shows PARP1/PARP2 inhibition Selectivity multiple N (N = IC50 (PARP2)/IC50 (PARP1)) equal to 40

The compound listed as CNC(=O)c1ccc(N2CCN(Cc3cnc4c5c(c(=O)[nH]c4c3)CCC5)[C@H]3CC[C@H]32)cn1 [Example 12-2] shows PARP1/PARP2 inhibition Selectivity multiple N (N = IC50 (PARP2)/IC50 (PARP1)) equal to 120

FYI, the data here is from patent US20250221987A1.
